This collection of values is drawn from PubChem BioAssay AID330.

system: P388 leukemia ip, CD2F1 mice, survival T/C; experiment: NCI In Vivo Anticancer Drug Screen. Data for tumor model P388 Leukemia (intraperitoneal) in CD2F1 (CDF1) mice; details: endpoint: median survival time; dose: 240.0 mg/kg/injection; schedule: Q01DX005 (ip); vehicle: saline with Tween-80; higher = longer survival
Inconclusive results and toxic doses are left out.
measured_endpoint: T/C

{"compound": "O=C1CCC(c2nc3ccccc3[nH]2)N1Cc1csc(-c2ccccc2)n1 (stereo unspecified)", "T/C": "88 % of control"}

Quick request: T/C for each listed item, please.
1. Cc1cccc(NC(=O)Oc2ccc(C#N)cc2)c1
2. CCC(=O)NN1C(=O)c2ccccc2C1=O
3. O=C1C=CC(=O)[C@H]2CC=C3OC4OC5(CCCCC5)OC4[C@H]3[C@@H]12 (stereo partly specified)

106 % of control
99 % of control
97 % of control

Quick request: T/C for each listed item, please.
1. NC(=O)c1sc(N2CCCC2)nc1N
2. COc1cc(C(O)CCBr)c(OC)cc1C (stereo unspecified)

1: 118 % of control; 2: 95 % of control

* * *

system: P388 leukemia ip, CD2F1 mice, survival T/C; assay: NCI In Vivo Anticancer Drug Screen. Data for tumor model P388 Leukemia (intraperitoneal) in CD2F1 (CDF1) mice; details: endpoint: median survival time; dose: 25.0 mg/kg/injection; schedule: Q04DX003 (ip); vehicle: Klucel (hydroxypropylcellulose) (HPC); higher = longer survival
Toxic doses and inconclusive results are not listed.
Please provide measured T/C for the entries that follow.

Sample records with T/C:
{"compound": "C=CCOC(=O)CCl", "T/C": "99 % of control"}
{"compound": "N#CN=[N+]([O-])c1cccc(Cl)c1", "T/C": "91 % of control"}
{"compound": "Cn1c(-c2ccc(Cl)cc2)cc2cc(CN3C(=O)c4ccccc4C3=O)ccc21", "T/C": "95 % of control"}
{"compound": "CC1CCCCC12C(C#N)(C#N)C2(C#N)C#N (stereo not given)", "T/C": "102 % of control"}

Item "COc1ccccc1[N+]([O-])=NC#N" was tested on P388 leukemia ip, CD2F1 mice, survival T/C; the reported T/C is 99 % of control

* * *

Please provide measured T/C for the entries that follow.
system: P388 leukemia ip, CD2F1 mice, survival T/C; test: NCI In Vivo Anticancer Drug Screen. Data for tumor model P388 Leukemia (intraperitoneal) in CD2F1 (CDF1) mice; conditions: endpoint: median survival time; dose: 200.0 mg/kg/injection; schedule: Q01DX005 (ip); vehicle: saline with Tween-80; higher = longer survival
Inconclusive results and toxic doses are left out. Square brackets hold non-standard residues; d marks the D form. Peptide text beside a SMILES is read from it. * marks the point of attachment. ξ: configuration not given here. Ac5c = NC1(C(=O)O)CCCC1; Cbz = O=C(OCc1ccccc1)*; ξV = CC(C)C(N)C(=O)O

{"compound": "FC(F)(Br)C(F)(Cl)Br (stereo not given)", "T/C": "114 % of control"}
{"compound": "CS/C(=N/N=C/c1ccc2ccccc2n1)SS/C(=N/N=C\\c1ccc2ccccc2n1)SC", "T/C": "104 % of control"}

Quick request: T/C for each listed item, please.
1. CN(Cc1ccccc1)C1=CC(=O)C(N(C)Cc2ccccc2)=CC1=O
2. CC(C)C(NC(=O)C1(NC(=O)OCc2ccccc2)CCCC1)C(=O)O (stereo not given) (Cbz-[Ac5c]-[ξV]-OH)
3. CCC(=O)N1C(=O)C(C)C23c4ccccc4C(=O)N2CCCN13 (stereo not given)

["101 % of control", "99 % of control", "96 % of control"]

* * *

system: P388 leukemia ip, CD2F1 mice, survival T/C; assay: NCI In Vivo Anticancer Drug Screen. Data for tumor model P388 Leukemia (intraperitoneal) in CD2F1 (CDF1) mice; conditions: endpoint: median survival time; dose: 100.0 mg/kg/injection; schedule: Q01DX005 (ip); vehicle: saline with Tween-80; higher = longer survival
Toxic doses and inconclusive results are not listed.
Please provide measured T/C for the entries that follow.

Sample records with T/C:
{"compound": "C=CCn1c2c(c3ccccc3c1=O)C(=O)c1ccccc1-2", "T/C": "87 % of control"}
{"compound": "CN1C(=O)CNC(=O)c2ccc(Cl)cc21", "T/C": "90 % of control"}
{"compound": "CC(=O)Nc1cc(S(=O)(=O)O)cc2c(N=Nc3ccc(C(=O)Nc4ccc(N=Nc5ccc(S(=O)(=O)O)cc5)cc4)cc3)c(S(=O)(=O)O)cc(O)c12", "T/C": "90 % of control"}
{"compound": "OC(c1cc(-c2ccc(Cl)cc2)nc2ccccc12)C1CCCCN1 (stereo not drawn)", "T/C": "113 % of control"}

Quick request: T/C for each listed item, please.
1. CN(C)c1ccc2c(Oc3ccccc3)cc(N)nc2c1
2. CC1(Oc2ccccc2)OC(=O)c2ccccc2O1 (stereo not drawn)
3. CCN(CC)CCCC(C)NCC(O)c1cc(-c2ccc(Cl)cc2)nc2ccccc12 (stereo not drawn)
4. CS/C(=N/N=C/c1ccc2ccccc2n1)SS/C(=N/N=C\c1ccc2ccccc2n1)SC

1: 92 % of control; 2: 104 % of control; 3: 112 % of control; 4: 91 % of control

* * *

tested on: P388 leukemia ip, CD2F1 mice, survival T/C; assay: NCI In Vivo Anticancer Drug Screen. Data for tumor model P388 Leukemia (intraperitoneal) in CD2F1 (CDF1) mice; conditions: endpoint: median survival time; dose: 100.0 mg/kg/injection; schedule: Q01DX009 (ip); vehicle: saline
Toxic doses and inconclusive results are not listed. The calls were made as follows: active = survival T/C of 150% or more; inactive = T/C below 125% in these data.
Write down one outcome, taken from 1 (yes) = active, 0 (no) = inactive

Before answering, review these 8 worked examples.
{"compound": "CCN1CNC(=O)NC1", "assay_target": "P388 leukemia ip, CD2F1 mice, survival T/C", "label": "0 (no)"}
{"compound": "CC(=O)[C@H]1[C@H](O)C[C@H]2[C@@H]3CCC4=CC(=O)CC[C@]4(C)[C@@]3(F)[C@@H](O)C[C@@]21C", "assay_target": "P388 leukemia ip, CD2F1 mice, survival T/C", "label": "0 (no)"}
{"compound": "CSc1nccnn1", "assay_target": "P388 leukemia ip, CD2F1 mice, survival T/C", "label": "0 (no)"}
{"compound": "Fc1cccc(NC(=S)SCc2ccc(Cl)cc2)c1", "assay_target": "P388 leukemia ip, CD2F1 mice, survival T/C", "label": "0 (no)"}
{"compound": "COS(C)=O (centres undefined)", "assay_target": "P388 leukemia ip, CD2F1 mice, survival T/C", "label": "0 (no)"}
{"compound": "CCCCCCCC[N+]1([O-])CCOCC1", "assay_target": "P388 leukemia ip, CD2F1 mice, survival T/C", "label": "0 (no)"}
{"compound": "COc1ccc(/C(C#N)=C\\c2ccco2)cc1", "assay_target": "P388 leukemia ip, CD2F1 mice, survival T/C", "label": "0 (no)"}
{"compound": "c1cncc(CNCc2cccnc2)c1", "assay_target": "P388 leukemia ip, CD2F1 mice, survival T/C", "label": "0 (no)"}

Please share the test call associated with CCCCNP(=O)(N1CC1CC)N1CC1CC (centres undefined) .
1 (yes)

* * *

Please provide measured T/C for the entries that follow.
test system: P388 leukemia ip, CD2F1 mice, survival T/C; assay: NCI In Vivo Anticancer Drug Screen. Data for tumor model P388 Leukemia (intraperitoneal) in CD2F1 (CDF1) mice; details: endpoint: median survival time; dose: 200.0 mg/kg/injection; schedule: Q01DX009 (ip); vehicle: Klucel (hydroxypropylcellulose) (HPC); higher = longer survival
Toxic doses and inconclusive results are not listed.

Quick request: T/C for each listed item, please.
1. CCCCCCCCSc1nc2ccc(N=Cc3ccccc3O)cc2s1
2. O=C1CC(=O)N2C=CC=CC2N1 (stereo not drawn)
3. CNC(=O)N(C)CN(C)C(=O)NC
4. CC(C)(C)C[C](C)(c1ccccc1)[Sn]([CH3])([CH3])[CH3] (stereo not drawn)
5. COCCC1CN(C(C)C)C(=O)C1(c1ccccc1)c1ccccc1 (stereo not drawn)

1: 91 % of control; 2: 97 % of control; 3: 107 % of control; 4: 102 % of control; 5: 108 % of control

Quick request: T/C for each listed item, please.
1. Cn1c2ccccc2c(=O)c2ccc(Cl)cc21
2. NC(=O)c1ncn(C2OC(CO)C(O)C2O)c1O (stereo not drawn)
3. Clc1ccc(NC2=NCCS2)cc1Cl
4. COc1ccc(C2CC(c3ccccc3)=Nc3ccccc3S2)cc1 (stereo not drawn)
5. COC1/C=C\OC2(C)Oc3c(C)c(O)c4c(O)c(c5c(c4c3C2=O)NC2(CCN(Cc3ccccc3)CC2)N=5)=NC(=O)/C(C)=C\C=C\C(C)C(O)C(C)C(O)C(C)C(OC(C)=O)C1C (stereo not drawn)
6. CC1(C)CC2(C)OCCN2C(=S)N1 (stereo not drawn)
7. CC1(C)C/C(=C\c2ccc([N+](=O)[O-])cc2)C(=O)c2ccccc21

1: 88 % of control; 2: 96 % of control; 3: 101 % of control; 4: 108 % of control; 5: 103 % of control; 6: 89 % of control; 7: 98 % of control

Quick request: T/C for each listed item, please.
1. C[N+]1=C(/C=C/Nc2cc3c4ccccc4ccc3c3ccccc23)C(C)(C)c2ccccc21
2. CCCCCCCCCCCCN1CCS(=O)(=O)CC1
3. O=C(CS(=O)(=O)c1ccccc1)c1ccccc1
4. COc1cc([N+](=O)[O-])ccc1N=Cc1ccc(C=Nc2ccc([N+](=O)[O-])cc2OC)cc1
5. CC1(C)O[S+](c2ccccc2)c2ccccc21 (stereo not drawn)

117 % of control
101 % of control
101 % of control
96 % of control
108 % of control
